tested on: UO-31 renal; assay: NCI-60 one-dose screen, 48 h (100 = growth as untreated, 0 = no growth, -100 = all killed); conditions: 10 µM unless noted
About 83,000 compounds went through this panel and 20% of them were active in at least one assay; those are over-represented in the sample as a whole.
Tick Y if growth is 80% or greater. Tick N if growth is less than 80%.

Worked examples follow.
>>> assigned_category("O=C1/C(=C/C(Cl)=C/c2ccccc2)SC(=S)N1CCc1ccc(O)cc1")
"N"
>>> assigned_category("O=[N+]([O-])c1ccc2c(c1)Cc1cc(F)ccc1-2")
"Y"
>>> assigned_category("CCCCCCN(CCCCCC)CCC(O)c1ccc2ccccc2c1 (stereo unspecified)")
"N"
>>> assigned_category("COc1cc(Nc2cc(C)nc(N3CCN(c4ccnc5cc(Cl)ccc45)CC3)n2)cc(OC)c1")
"N"
>>> assigned_category("Cc1ccc(-c2onc3c(=O)[nH]nc(-c4ccccc4)c23)cc1")
"N"

stdin: Is reported growth greater than or equal to 80% here: CCNc1ncnc2c1cnn2C1CCCO1 (stereo unspecified)
stdout: Y

stdin: Is reported growth greater than or equal to 80% here: c1ccc(Cn2cc(-c3nc4ccccc4s3)c3cccnc32)cc1
stdout: N

stdin: Is reported growth greater than or equal to 80% here: N#C/C(=C\c1ccc(-c2cc(C(F)(F)F)ccc2Cl)o1)c1nc(-c2ccco2)cs1
stdout: Y

stdin: Is reported growth greater than or equal to 80% here: COc1ccc2c(c1)CC/C(=C\c1cncc(Br)c1)C2=O
stdout: Y

stdin: Is reported growth greater than or equal to 80% here: COc1ccc(/C=N/C2=C(C#N)C(c3ccc(N(C)C)cc3)c3ccc4ccccc4c3O2)cc1 (stereo unspecified)
stdout: N

stdin: Is reported growth greater than or equal to 80% here: Cn1ncc2c(=O)nc3c(-c4ccccc4)n[nH]n3c21
stdout: Y
